A collection of molecules and their measured half-life at 1 μM
Test: Metabolic stability in pooled human liver microsomes
Assay type: in vitro ADME
Details: pH 7.6, 1 μM compound, 37° C., NADPH, read-out: Half-life - t½ human liver microsomes

Reference set, count: 3
{"molecule": "CNC(=O)[C@@H]1CN(Cc2ccc(Oc3ccccc3F)cn2)CCO1", "half-life at 1 μM": "> 2.17 h"}
{"molecule": "CNC(=O)C1CN(Cc2ccc(Oc3ccc(F)cc3)nc2)CCO1 (stereo not drawn)", "half-life at 1 μM": "> 2.17 h"}
{"molecule": "CNC(=O)[C@@H]1CN(Cc2ccc(Oc3ccc(F)cc3F)cn2)CCO1", "half-life at 1 μM": "> 2.17 h"}

Req: Given the molecule CNC(=O)C1CN(Cc2ccc(Oc3ccc(F)cc3F)nc2)CCO1 (stereo not drawn) , write its reported half-life at 1 μM.
Resp: > 2.17 h

Req: Given the molecule `CNC(=O)[C@@H]1CN(Cc2ccc(Oc3ccc(C)cc3)nc2)CCO1` , write its reported half-life at 1 μM.
Resp: > 2.17 h

Req: Given the molecule `CNC(=O)[C@@H]1CN(Cc2ccc(Oc3ccccc3Cl)nc2)CCO1` , write its reported half-life at 1 μM.
Resp: > 2.17 h

Req: Given the molecule `CNC(=O)[C@@H]1CN(Cc2ccc(Oc3ccccc3F)nc2)CCO1` , write its reported half-life at 1 μM.
Resp: > 2.17 h

Req: Given the molecule `CNC(=O)[C@@H]1CN(Cc2ccc(Oc3ccc(C)cc3F)cn2)CCO1` , write its reported half-life at 1 μM.
Resp: > 2.17 h

Req: Given the molecule CNC(=O)C1CN(Cc2ccc(Oc3ccc(Cl)cc3F)nc2)CCO1 (stereo not drawn) , write its reported half-life at 1 μM.
Resp: > 2.17 h

* * *

A collection of compounds and their measured efflux ratio at 2 h
Target: MDR1 (P-gp) (Homo sapiens)
Construct: expressed in transfected cells; host or cells: MDCKII (Madin-Darby canine kidney)
Sequence (P08183 whole entry): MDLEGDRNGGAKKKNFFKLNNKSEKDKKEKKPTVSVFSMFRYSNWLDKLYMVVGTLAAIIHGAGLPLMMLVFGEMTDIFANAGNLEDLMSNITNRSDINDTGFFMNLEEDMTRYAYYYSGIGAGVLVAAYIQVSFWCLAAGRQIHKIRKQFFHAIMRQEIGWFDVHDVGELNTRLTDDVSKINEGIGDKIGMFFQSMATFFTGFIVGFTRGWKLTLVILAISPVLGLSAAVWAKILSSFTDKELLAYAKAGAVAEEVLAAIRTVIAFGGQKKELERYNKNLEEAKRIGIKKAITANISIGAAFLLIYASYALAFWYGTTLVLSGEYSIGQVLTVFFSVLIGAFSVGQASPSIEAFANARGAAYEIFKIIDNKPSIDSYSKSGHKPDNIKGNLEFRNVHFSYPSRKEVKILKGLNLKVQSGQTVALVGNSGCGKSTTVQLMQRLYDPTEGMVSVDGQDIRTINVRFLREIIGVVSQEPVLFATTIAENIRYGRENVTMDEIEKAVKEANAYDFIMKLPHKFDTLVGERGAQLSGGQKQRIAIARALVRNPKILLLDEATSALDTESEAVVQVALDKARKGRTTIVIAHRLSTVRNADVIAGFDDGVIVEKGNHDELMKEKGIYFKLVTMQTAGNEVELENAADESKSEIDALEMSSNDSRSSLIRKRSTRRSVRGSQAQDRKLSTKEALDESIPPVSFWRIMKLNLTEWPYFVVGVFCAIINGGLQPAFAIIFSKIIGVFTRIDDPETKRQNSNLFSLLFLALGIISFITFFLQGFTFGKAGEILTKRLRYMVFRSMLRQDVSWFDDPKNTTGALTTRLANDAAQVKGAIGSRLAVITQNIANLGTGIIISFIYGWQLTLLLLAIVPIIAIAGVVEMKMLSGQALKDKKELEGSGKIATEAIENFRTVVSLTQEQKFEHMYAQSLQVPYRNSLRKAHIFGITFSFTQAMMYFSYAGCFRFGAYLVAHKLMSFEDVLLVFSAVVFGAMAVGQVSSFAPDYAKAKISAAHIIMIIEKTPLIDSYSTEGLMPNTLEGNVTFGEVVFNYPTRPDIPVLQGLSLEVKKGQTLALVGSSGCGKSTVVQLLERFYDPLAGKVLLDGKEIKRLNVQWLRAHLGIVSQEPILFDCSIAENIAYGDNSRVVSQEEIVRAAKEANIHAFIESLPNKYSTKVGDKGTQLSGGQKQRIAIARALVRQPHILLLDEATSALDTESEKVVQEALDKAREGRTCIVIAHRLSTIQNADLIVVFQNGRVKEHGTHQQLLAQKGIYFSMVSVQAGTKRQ
Assay: MDCK assay P-gp (permeability across MDCK-MDR1 monolayers)
Format: in vitro ADME
Conditions: pH 7.4, Papp (b-a) divided by Papp (a-b), MDCK-MDR1, read-out: efflux ratio PEBA/PEAB
Protocol: The MDCK assays provide information on the potential of a compound to pass the blood brain barrier. Permeability measurements across polarized, confluent MDCK-MDR1 cell monolayers grown on permeable filter supports are used as an in vitro absorption model: apparent permeability coefficients (PE) of the compounds across the MDCK-MDR1 cell monolayers are measured (pH 7.4, 37° C.) in apical-to-basal (AB) and basal-to-apical (BA) transport direction. […]
In your answer, state the number alone without any accompanying words.

Reference set, count: 4
{"compound": "CNC(=O)[C@@H]1CN(Cc2ccc(Oc3ccccc3Cl)nc2)CCO1", "efflux ratio at 2 h": 0.6}
{"compound": "CNC(=O)C1CN(Cc2ccc(Oc3ccc(C)cc3C)nc2)CCO1 (centres unmarked)", "efflux ratio at 2 h": 1}
{"compound": "CNC(=O)[C@@H]1CN(Cc2ccc(Oc3ccc(Cl)cc3F)cn2)CCO1", "efflux ratio at 2 h": 0.5}
{"compound": "CNC(=O)[C@@H]1CN(Cc2ccc(Oc3ccc(C)cc3)nc2)CCO1", "efflux ratio at 2 h": 0.8}

Now for the compound whose efflux ratio at 2 h we want.
Req: Given the compound `CNC(=O)[C@@H]1CN(Cc2ccc(Oc3ccc(F)cc3)cn2)CCO1` , write its reported efflux ratio at 2 h.
Resp: 0.5

* * *

Molecular target: Nav1.6 (Homo sapiens)
Sequence (Q9UQD0 whole entry): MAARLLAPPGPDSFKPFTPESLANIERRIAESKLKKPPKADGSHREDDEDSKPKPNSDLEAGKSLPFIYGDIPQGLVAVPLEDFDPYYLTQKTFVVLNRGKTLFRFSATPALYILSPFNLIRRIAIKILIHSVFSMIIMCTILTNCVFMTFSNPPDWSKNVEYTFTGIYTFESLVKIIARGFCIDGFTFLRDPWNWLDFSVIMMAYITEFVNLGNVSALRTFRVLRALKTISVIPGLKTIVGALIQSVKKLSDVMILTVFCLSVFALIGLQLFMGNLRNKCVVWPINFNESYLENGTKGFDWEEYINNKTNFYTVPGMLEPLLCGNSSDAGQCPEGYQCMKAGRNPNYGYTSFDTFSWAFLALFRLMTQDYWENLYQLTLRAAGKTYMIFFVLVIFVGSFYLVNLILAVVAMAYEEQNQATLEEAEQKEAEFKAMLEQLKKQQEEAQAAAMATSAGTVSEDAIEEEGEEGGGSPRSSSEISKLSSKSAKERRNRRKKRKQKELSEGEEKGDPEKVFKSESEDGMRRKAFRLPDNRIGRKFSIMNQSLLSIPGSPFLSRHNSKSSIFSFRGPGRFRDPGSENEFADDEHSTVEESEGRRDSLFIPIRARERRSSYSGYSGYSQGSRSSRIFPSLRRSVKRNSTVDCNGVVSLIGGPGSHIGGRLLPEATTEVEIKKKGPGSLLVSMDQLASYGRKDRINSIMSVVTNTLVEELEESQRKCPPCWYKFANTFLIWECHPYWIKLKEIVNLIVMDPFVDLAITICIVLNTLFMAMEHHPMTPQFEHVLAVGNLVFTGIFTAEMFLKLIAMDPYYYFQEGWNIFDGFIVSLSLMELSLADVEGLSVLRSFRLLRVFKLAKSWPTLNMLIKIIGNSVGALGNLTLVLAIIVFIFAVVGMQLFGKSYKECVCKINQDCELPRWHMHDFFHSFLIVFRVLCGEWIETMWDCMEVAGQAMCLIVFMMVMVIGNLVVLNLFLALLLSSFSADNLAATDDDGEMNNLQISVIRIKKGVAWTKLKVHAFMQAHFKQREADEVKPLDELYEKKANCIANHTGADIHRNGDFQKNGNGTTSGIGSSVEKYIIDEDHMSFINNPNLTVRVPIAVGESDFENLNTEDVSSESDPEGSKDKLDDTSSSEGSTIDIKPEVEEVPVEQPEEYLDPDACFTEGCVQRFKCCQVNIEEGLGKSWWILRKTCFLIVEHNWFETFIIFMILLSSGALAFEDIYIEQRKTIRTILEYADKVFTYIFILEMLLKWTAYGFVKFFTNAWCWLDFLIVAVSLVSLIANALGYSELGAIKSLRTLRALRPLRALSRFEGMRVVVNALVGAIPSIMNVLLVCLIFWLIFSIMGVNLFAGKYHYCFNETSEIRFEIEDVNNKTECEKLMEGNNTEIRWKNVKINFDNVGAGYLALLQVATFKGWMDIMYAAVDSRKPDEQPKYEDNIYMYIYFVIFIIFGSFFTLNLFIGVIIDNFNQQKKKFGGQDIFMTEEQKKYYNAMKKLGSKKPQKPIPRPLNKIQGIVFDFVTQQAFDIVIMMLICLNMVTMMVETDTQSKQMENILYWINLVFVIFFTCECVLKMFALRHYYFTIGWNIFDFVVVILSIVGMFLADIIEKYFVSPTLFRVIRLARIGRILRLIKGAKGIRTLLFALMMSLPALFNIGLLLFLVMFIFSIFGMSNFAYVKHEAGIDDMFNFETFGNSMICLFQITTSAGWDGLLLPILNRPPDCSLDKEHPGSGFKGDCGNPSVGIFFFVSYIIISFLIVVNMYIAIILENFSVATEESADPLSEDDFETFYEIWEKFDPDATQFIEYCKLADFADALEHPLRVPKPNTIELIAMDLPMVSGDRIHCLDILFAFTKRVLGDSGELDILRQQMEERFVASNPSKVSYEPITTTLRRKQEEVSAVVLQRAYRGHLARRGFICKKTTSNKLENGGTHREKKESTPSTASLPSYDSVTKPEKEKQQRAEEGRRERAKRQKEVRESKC
Assay: Nav 1.6 inhibition, IonWorks Quattro electrophysiology
Assay type: cell-based
Conditions: 1 μM; normalized to vehicle control (0%) and maximal inhibition control (100%)
assayReadout: inhibition at 1 µM (%)
The figure you give is taken to be in %; do not add the unit.

Reference set, count: 8
{"molecule": "CNC(=O)C1CN(Cc2ccc(Oc3ccc(Cl)cc3F)nc2)CCO1 (centres unmarked)", "testedTarget": "Nav1.6 (Homo sapiens)", "unit": "%", "inhibition at 1 µM": -17.4}
{"molecule": "COCCNC(=O)C1CN(Cc2cccc(Oc3ccccc3)c2)CCO1 (centres unmarked) [Example 107 of WO2015/130905, reference compound]", "testedTarget": "Nav1.6 (Homo sapiens)", "unit": "%", "inhibition at 1 µM": -8.5}
{"molecule": "CNC(=O)C1CN(Cc2ccc(Oc3ccc(F)cc3F)nc2)CCO1 (centres unmarked)", "testedTarget": "Nav1.6 (Homo sapiens)", "unit": "%", "inhibition at 1 µM": 4.2}
{"molecule": "CNC(=O)C1CN(Cc2ccc(Oc3ccc(C)cc3F)nc2)CCO1 (centres unmarked)", "testedTarget": "Nav1.6 (Homo sapiens)", "unit": "%", "inhibition at 1 µM": 5.1}
{"molecule": "CNC(=O)[C@@H]1CN(Cc2ccc(Oc3ccccc3F)nc2)CCO1", "testedTarget": "Nav1.6 (Homo sapiens)", "unit": "%", "inhibition at 1 µM": 5.2}
{"molecule": "CNC(=O)[C@@H]1CN(Cc2ccc(Oc3ccc(F)cc3)cn2)CCO1", "testedTarget": "Nav1.6 (Homo sapiens)", "unit": "%", "inhibition at 1 µM": 7.6}
{"molecule": "CNC(=O)[C@@H]1CN(Cc2ccc(Oc3ccc(C)cc3)nc2)CCO1", "testedTarget": "Nav1.6 (Homo sapiens)", "unit": "%", "inhibition at 1 µM": 1.8}
{"molecule": "CNC(=O)C1CN(Cc2ccc(Oc3ccc(F)cc3)nc2)CCO1 (centres unmarked)", "testedTarget": "Nav1.6 (Homo sapiens)", "unit": "%", "inhibition at 1 µM": 0.7}

Req: Given the molecule CNC(=O)C1CN(Cc2ccc(Oc3ccc(C)cc3C)nc2)CCO1 (centres unmarked) , write its reported inhibition at 1 µM.
Resp: -3.1

Req: Given the molecule CNC(=O)C1CN(Cc2ccc(Oc3ccc(Cl)cc3)nc2)CCO1 (centres unmarked) , write its reported inhibition at 1 µM.
Resp: -0.5

Req: Given the molecule `CNC(=O)[C@@H]1CN(Cc2ccc(Oc3ccccc3Cl)nc2)CCO1` , write its reported inhibition at 1 µM.
Resp: 22

* * *

A collection of compounds and their measured Papp A→B at 2 h
Target: MDR1 (P-gp) (Homo sapiens)
Construct: expressed in transfected cells; host or cells: MDCKII (Madin-Darby canine kidney)
Assay: MDCK assay P-gp (permeability across MDCK-MDR1 monolayers)
Format: in vitro ADME
Settings: apical-to-basal, MDCK-MDR1 monolayers, pH 7.4
The figure you give is taken to be in ×10⁻⁶ cm/s; do not add the unit.

Reference set, count: 10
{"compound": "CNC(=O)C1CN(Cc2ccc(Oc3ccc(Cl)cc3)nc2)CCO1 (centres unmarked)", "assayReadout": "Papp A→B at 2 h", "reported": 51}
{"compound": "CNC(=O)C1CN(Cc2ccc(Oc3ccc(F)cc3)nc2)CCO1 (centres unmarked)", "assayReadout": "Papp A→B at 2 h", "reported": 92}
{"compound": "CNC(=O)C1CN(Cc2ccc(Oc3ccc(Cl)cc3F)nc2)CCO1 (centres unmarked)", "assayReadout": "Papp A→B at 2 h", "reported": 42}
{"compound": "CNC(=O)[C@@H]1CN(Cc2ccc(Oc3ccc(Cl)cc3F)cn2)CCO1", "assayReadout": "Papp A→B at 2 h", "reported": 80}
{"compound": "CNC(=O)C1CN(Cc2ccc(Oc3ccc(F)cc3F)nc2)CCO1 (centres unmarked)", "assayReadout": "Papp A→B at 2 h", "reported": 72}
{"compound": "CNC(=O)[C@@H]1CN(Cc2ccc(Oc3ccc(C)cc3F)cn2)CCO1", "assayReadout": "Papp A→B at 2 h", "reported": 58}
{"compound": "CNC(=O)[C@@H]1CN(Cc2ccc(Oc3ccc(C)cc3)nc2)CCO1", "assayReadout": "Papp A→B at 2 h", "reported": 58}
{"compound": "CNC(=O)[C@@H]1CN(Cc2ccc(Oc3ccccc3F)cn2)CCO1", "assayReadout": "Papp A→B at 2 h", "reported": 71}
{"compound": "CNC(=O)[C@@H]1CN(Cc2ccc(Oc3ccc(F)cc3F)cn2)CCO1", "assayReadout": "Papp A→B at 2 h", "reported": 63}
{"compound": "CNC(=O)C1CN(Cc2ccc(Oc3ccc(C)cc3C)nc2)CCO1 (centres unmarked)", "assayReadout": "Papp A→B at 2 h", "reported": 45}

Req: Given the compound CNC(=O)C1CN(Cc2ccc(Oc3ccc(C)cc3F)nc2)CCO1 (centres unmarked) , write its reported Papp A→B at 2 h.
Resp: 80

Req: Given the compound `CNC(=O)[C@@H]1CN(Cc2ccc(Oc3ccccc3F)nc2)CCO1` , write its reported Papp A→B at 2 h.
Resp: 75

Req: Given the compound `CNC(=O)[C@@H]1CN(Cc2ccc(Oc3ccccc3Cl)nc2)CCO1` , write its reported Papp A→B at 2 h.
Resp: 67

Req: Given the compound `CNC(=O)[C@@H]1CN(Cc2ccc(Oc3ccc(F)cc3)cn2)CCO1` , write its reported Papp A→B at 2 h.
Resp: 86
